Taken from paper PMC9359405.

Assay protocol: Pharmacokinetics in blood and vital organs
Type: in vivo, Wistar rats
Setup conditions: male, Wistar, rat, heart, po
Value type: half-life (min)
Express the result in min but write the number alone.

Need half-life of C/C=C1\[C@H]2C=C(C)C[C@]1(N)c1ccc(=O)[nH]c1C2 [HupA Solution, huperzine A] , thanks.
133

###

Assay protocol: Pharmacokinetics in blood and vital organs
Format: in vivo, Wistar rats
Setup conditions: male, Wistar, rat, heart, po
Value type: Tmax (min)
Express the result in min but write the number alone.

Need Tmax of C/C=C1\[C@H]2C=C(C)C[C@]1(N)c1ccc(=O)[nH]c1C2 , thanks.
30

###

Assay protocol: Pharmacokinetics in blood and vital organs
Format: in vivo, Wistar rats
Setup conditions: male, Wistar, rat, spleen, po
Value type: MRT last (h)
Express the result in h but write the number alone.

Need MRT last of C/C=C1\[C@H]2C=C(C)C[C@]1(N)c1ccc(=O)[nH]c1C2 , thanks.
2.03
